Values compiled from the RNAGym collection of RNA variant scans (doi:10.7554/elife.80360).

B1: HDV Ribozyme (parent)
chain: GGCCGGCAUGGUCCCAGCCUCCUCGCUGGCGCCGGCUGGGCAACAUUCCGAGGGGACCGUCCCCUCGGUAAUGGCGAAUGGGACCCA

# Variants of: B1
# Test Method Notes: self-cleavage, relative activity (ratio to wild type); higher = more cleavage; co-transcriptional
Definition: the class of an entry is the range in class A: < 0.2; class B: ≥ 0.2 and < 0.6; class C: ≥ 0.6 that contains its self-cleavage.

{"Mutation Notation": "U20G C44G", "Answer Label": "class A"}
{"Mutation Notation": "G50C G54U", "Answer Label": "class B"}
{"Mutation Notation": "U65C C86G", "Answer Label": "class C"}
{"Mutation Notation": "U65A G68A", "Answer Label": "class C"}
{"Mutation Notation": "G52C U65A", "Answer Label": "class C"}
{"Mutation Notation": "G1C G11U", "Answer Label": "class A"}
{"Mutation Notation": "C48A C84A", "Answer Label": "class C"}
{"Mutation Notation": "C30U G67A", "Answer Label": "class B"}
{"Mutation Notation": "U20A C36A", "Answer Label": "class A"}
{"Mutation Notation": "G40C C61U", "Answer Label": "class A"}
{"Mutation Notation": "G34U G38A", "Answer Label": "class A"}
{"Mutation Notation": "G1U C85G", "Answer Label": "class B"}
{"Mutation Notation": "C22G G35A", "Answer Label": "class A"}
{"Mutation Notation": "G25C G40U", "Answer Label": "class A"}
{"Mutation Notation": "G28U G82C", "Answer Label": "class A"}
{"Mutation Notation": "U27A G59C", "Answer Label": "class C"}
{"Mutation Notation": "G5A G67A", "Answer Label": "class A"}
{"Mutation Notation": "G52C G67C", "Answer Label": "class B"}
{"Mutation Notation": "G17U A51G", "Answer Label": "class B"}
{"Mutation Notation": "G5U C49U", "Answer Label": "class C"}
{"Mutation Notation": "G10C C58A", "Answer Label": "class C"}
{"Mutation Notation": "C44U C48U", "Answer Label": "class C"}
{"Mutation Notation": "G17U C33G", "Answer Label": "class A"}
{"Mutation Notation": "A16C A78C", "Answer Label": "class A"}
{"Mutation Notation": "C32A A51U", "Answer Label": "class B"}
{"Mutation Notation": "A45C C61A", "Answer Label": "class C"}
{"Mutation Notation": "G28C C30A", "Answer Label": "class A"}
{"Mutation Notation": "A77G C85A", "Answer Label": "class C"}
{"Mutation Notation": "G2C G81C", "Answer Label": "class A"}
{"Mutation Notation": "G28U A78G", "Answer Label": "class A"}
{"Mutation Notation": "G1U U79C", "Answer Label": "class B"}
{"Mutation Notation": "C44U A56C", "Answer Label": "class C"}
{"Mutation Notation": "G39A C58G", "Answer Label": "class B"}
{"Mutation Notation": "C32A G39A", "Answer Label": "class A"}
{"Mutation Notation": "G11A C13G", "Answer Label": "class A"}
{"Mutation Notation": "U9A G10A", "Answer Label": "class C"}
{"Mutation Notation": "C61G G81C", "Answer Label": "class B"}
{"Mutation Notation": "G59U C84A", "Answer Label": "class C"}
{"Mutation Notation": "C30A G53U", "Answer Label": "class B"}
{"Mutation Notation": "C36A U65G", "Answer Label": "class B"}
{"Mutation Notation": "A8U U60A", "Answer Label": "class C"}
{"Mutation Notation": "G38U G76U", "Answer Label": "class B"}
{"Mutation Notation": "C19U C84U", "Answer Label": "class A"}
{"Mutation Notation": "A16G C44G", "Answer Label": "class C"}
{"Mutation Notation": "U47A C57G", "Answer Label": "class C"}
{"Mutation Notation": "C15U C85U", "Answer Label": "class C"}
{"Mutation Notation": "G40U G53A", "Answer Label": "class C"}
{"Mutation Notation": "G11A U27C", "Answer Label": "class B"}
{"Mutation Notation": "U46C G81A", "Answer Label": "class B"}
{"Mutation Notation": "C24U G73U", "Answer Label": "class A"}
{"Mutation Notation": "C3G G53A", "Answer Label": "class C"}
{"Mutation Notation": "G6A G34U", "Answer Label": "class A"}
{"Mutation Notation": "C21U G81U", "Answer Label": "class A"}
{"Mutation Notation": "G40C C66A", "Answer Label": "class B"}
{"Mutation Notation": "C13A U23C", "Answer Label": "class B"}
{"Mutation Notation": "C3G A70C", "Answer Label": "class B"}
{"Mutation Notation": "C62G C85A", "Answer Label": "class C"}
{"Mutation Notation": "C63G A83C", "Answer Label": "class B"}
{"Mutation Notation": "G28U G29U", "Answer Label": "class A"}
{"Mutation Notation": "G52U A70G", "Answer Label": "class C"}
{"Mutation Notation": "U47C C63A", "Answer Label": "class C"}
{"Mutation Notation": "C7A G52U", "Answer Label": "class B"}
{"Mutation Notation": "C44A C85G", "Answer Label": "class C"}
{"Mutation Notation": "G35C G52U", "Answer Label": "class B"}
{"Mutation Notation": "U9C G10A", "Answer Label": "class C"}
{"Mutation Notation": "G25A U37C", "Answer Label": "class A"}
{"Mutation Notation": "G59C A71U", "Answer Label": "class C"}
{"Mutation Notation": "U20A C75G", "Answer Label": "class A"}
{"Mutation Notation": "C66U C84G", "Answer Label": "class B"}
{"Mutation Notation": "U37C G39A", "Answer Label": "class A"}
{"Mutation Notation": "G2A G73A", "Answer Label": "class A"}
{"Mutation Notation": "A16U G76C", "Answer Label": "class C"}
{"Mutation Notation": "G81A A83U", "Answer Label": "class A"}
{"Mutation Notation": "C18U A43C", "Answer Label": "class B"}
{"Mutation Notation": "A43C C44A", "Answer Label": "class C"}
{"Mutation Notation": "G50U A70U", "Answer Label": "class C"}
{"Mutation Notation": "G35C C62G", "Answer Label": "class A"}
{"Mutation Notation": "A42U U69G", "Answer Label": "class B"}
{"Mutation Notation": "G52C C58G", "Answer Label": "class C"}
{"Mutation Notation": "U37C C61A", "Answer Label": "class C"}
{"Mutation Notation": "C15A U79G", "Answer Label": "class C"}
{"Mutation Notation": "G34C G76U", "Answer Label": "class B"}
{"Mutation Notation": "G82U A83U", "Answer Label": "class B"}
{"Mutation Notation": "G80C A83C", "Answer Label": "class A"}
{"Mutation Notation": "C33A C58A", "Answer Label": "class A"}
{"Mutation Notation": "G55A C62G", "Answer Label": "class C"}
{"Mutation Notation": "C21U U65G", "Answer Label": "class A"}
